- Target: T1, Purified recombinant human CD26 (rhDipeptidyl peptidase IV), R&D Systems CAT #1180-SE (human, UniProt P27487 29-766)
- T1 construct: Bought recombinant protein; also called hu-CD26; soluble human CD26
- T1 sequence (P27487 29-766 limits assumed): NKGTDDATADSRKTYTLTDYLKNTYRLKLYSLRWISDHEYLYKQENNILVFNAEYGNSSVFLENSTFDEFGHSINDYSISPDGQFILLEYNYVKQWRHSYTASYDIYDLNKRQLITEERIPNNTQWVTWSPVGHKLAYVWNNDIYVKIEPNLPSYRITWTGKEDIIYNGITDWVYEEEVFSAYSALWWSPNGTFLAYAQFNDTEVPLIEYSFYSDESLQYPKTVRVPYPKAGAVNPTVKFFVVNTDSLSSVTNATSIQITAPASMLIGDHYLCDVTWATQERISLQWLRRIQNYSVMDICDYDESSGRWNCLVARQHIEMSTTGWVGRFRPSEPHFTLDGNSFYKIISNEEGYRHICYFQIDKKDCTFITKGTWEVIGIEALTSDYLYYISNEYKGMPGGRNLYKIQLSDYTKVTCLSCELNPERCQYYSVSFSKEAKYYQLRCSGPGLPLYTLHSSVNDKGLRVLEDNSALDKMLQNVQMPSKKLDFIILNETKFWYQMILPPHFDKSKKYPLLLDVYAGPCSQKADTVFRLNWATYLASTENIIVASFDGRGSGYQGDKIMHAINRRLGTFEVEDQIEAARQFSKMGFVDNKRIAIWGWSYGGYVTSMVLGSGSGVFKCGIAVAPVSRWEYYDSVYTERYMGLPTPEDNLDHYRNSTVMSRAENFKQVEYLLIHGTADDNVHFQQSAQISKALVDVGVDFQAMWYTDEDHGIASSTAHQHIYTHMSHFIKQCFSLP
- Assay summary: SPR (Biacore), CD26 preoccupied by the Fab; competitor 14D10 ascites
Property measured: percent decrease in binding of 14D10 to CD26

Which measured percent decrease in binding of 14D10 to CD26 value corresponds to Fab X391 (X388 VH and X376 VL) (Fab, V domains shown, Fab made in E. coli) VH: EVQLVQSGGGLKQPGETLRLSCTASGYSLTTYGVHWVRQAPGKGLEWMGVIWGDGRTDYDSSFMSRVTISKDTSKSTAYLQLNSLRAEDTAVYYCTRNRHDWFDYWGQGTTVTVSS VL: DILMTQSPSSLSASPGDRVTISCRASQDIRNNLNWYQQKPGQAPRLLIYYSSNLHSGVPDRFSGSGSGTDFTLTISRLEPEDFAAYYCQQSIKLPLTFGSGTKVEIK ? ≥ 80%

Which measured percent decrease in binding of 14D10 to CD26 value corresponds to Fab X390 (X385 VH and X376 VL) (Fab, V domains shown, Fab made in E. coli) VH: EVQLVQSGGGVKQPGETLRLTCTASGFSLTTYGVHWVRQAPGKGLEWVGVIWGDGRTDYDAAFMSRVTISKDTSKSTAYLQMNSLRAEDTAVYYCMRNRHDWFDYWGQGTTVTVSS VL: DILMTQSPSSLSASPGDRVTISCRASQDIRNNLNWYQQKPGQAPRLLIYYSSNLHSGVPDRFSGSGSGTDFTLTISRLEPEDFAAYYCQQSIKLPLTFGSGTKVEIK ? ≥ 80%

Which measured percent decrease in binding of 14D10 to CD26 value corresponds to Fab X389 (X384 VH and X376 VL) (Fab, V domains shown, Fab made in E. coli) VH: EVQLVESGAGVKQPGGTLRLTCTASGFSLTTYGVHWVRQAPGKGLEWVGVIWGDGRTDYDAAFMSRVTISKDTSKSTVYLQMNSLRAEDTAVYYCMRNRHDWFDYWGQGTTVTVSS VL: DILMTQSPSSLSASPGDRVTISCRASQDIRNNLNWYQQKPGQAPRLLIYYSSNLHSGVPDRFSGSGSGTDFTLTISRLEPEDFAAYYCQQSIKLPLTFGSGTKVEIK ? ≥ 80%
